Quick reference: pIC50 of the listed items.
tested_on: HLA-DRB1*11:01 (Homo sapiens, UniProt P01903+P01911, A100R/A169T/A87E/I96F/K41T/L162R/M171V/P40S/Q125H/Q178H/Q39Y/Q99D/R42S/S66Y/T262R/V115G/W38E)
Sequence (P01903 26-254 limits assumed, other chains not shown): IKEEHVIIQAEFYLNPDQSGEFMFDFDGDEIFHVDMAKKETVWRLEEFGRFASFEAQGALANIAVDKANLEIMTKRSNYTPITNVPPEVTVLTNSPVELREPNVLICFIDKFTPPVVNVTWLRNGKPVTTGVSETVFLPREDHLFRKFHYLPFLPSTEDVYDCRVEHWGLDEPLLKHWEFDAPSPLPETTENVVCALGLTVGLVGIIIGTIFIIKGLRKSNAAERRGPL
assay_protocol: biochemical
Bear in mind: pIC50 is minus log10 of a mol/L concentration; give just that figure.

[Q] For the compound CC[C@H](C)[C@H](N)C(=O)N1CCC[C@H]1C(=O)N[C@@H](Cc1ccccc1)C(=O)N[C@@H](C)C(=O)N[C@@H](CCSC)C(=O)N[C@@H](CCC(N)=O)C(=O)N[C@@H](CCSC)C(=O)N[C@@H](C)C(=O)N[C@@H](Cc1ccc(O)cc1)C(=O)N[C@@H](CCCNC(=N)N)C(=O)N[C@@H](Cc1ccccc1)C(=O)N[C@@H](CC(N)=O)C(=O)NCC(=O)N[C@H](C(=O)NCC(=O)O)[C@@H](C)CC [peptide 180] , give its measured pIC50 value.
[A] 7.64

[Q] Return value of pIC50 for input CC(C)[C@H](N)C(=O)N[C@@H](Cc1ccccc1)C(=O)N[C@@H](CC(N)=O)C(=O)N[C@@H](C)C(=O)N[C@H](C(=O)N[C@@H](CCCNC(=N)N)C(=O)N[C@@H](Cc1ccccc1)C(=O)N[C@@H](C)C(=O)N[C@@H](CO)C(=O)N[C@H](C(=O)N[C@@H](Cc1ccc(O)cc1)C(=O)N[C@@H](C)C(=O)N[C@@H](Cc1c[nH]c2ccccc12)C(=O)N[C@@H](CC(N)=O)C(=O)N[C@@H](CCCNC(=N)N)C(=O)O)C(C)C)[C@@H](C)O [peptide 69] , no commentary.
[A] 6.43

[Q] Give the measured pIC50 for CC[C@H](C)[C@H](NC(=O)CN)C(=O)N[C@@H](Cc1ccc(O)cc1)C(=O)N[C@@H](CCC(N)=O)C(=O)N[C@H](C(=O)N[C@@H](CO)C(=O)N[C@@H](CC(N)=O)C(=O)N[C@@H](Cc1ccccc1)C(=O)N[C@@H](CCCNC(=N)N)C(=O)N[C@H](C(=O)N[C@@H](CCC(N)=O)C(=O)N1CCC[C@H]1C(=O)N[C@H](C(=O)N[C@@H](CCC(=O)O)C(=O)N[C@@H](CO)C(=O)O)[C@@H](C)O)C(C)C)[C@@H](C)O [compound 63]
[A] 5.94

----------
tested_on: HLA-DRB1*01:01 (Homo sapiens, UniProt P01903+P01911, A100R/D57E/F55L/F60I/F76Y/I96L/L162R/M171V/P40L/Q125E/R42F/V115G/Y59C)
assay_protocol: biochemical
Assay type: binding
measured_endpoint: pIC50
For clarity, pIC50 is expressed as the negative log10 of concentration in mol/L.

[Q] Consider the molecule CC[C@H](C)[C@H](NC(=O)[C@H](CCCCN)NC(=O)[C@@H](N)Cc1ccccc1)C(=O)N[C@@H](Cc1ccc(O)cc1)C(=O)N[C@@H](CO)C(=O)N[C@@H](CCCCN)C(=O)N[C@@H](Cc1c[nH]cn1)C(=O)N[C@H](C(=O)N1CCC[C@H]1C(=O)N[C@H](C(=O)N[C@@H](CC(N)=O)C(=O)N[C@@H](CC(C)C)C(=O)N[C@H](C(=O)N[C@@H](CCCNC(=N)N)C(=O)N[C@@H](CC(=O)O)C(=O)O)C(C)C)[C@@H](C)CC)[C@@H](C)O [peptide 41] and give its recorded pIC50.
[A] 7.19

Others:
[Q] Return the recorded pIC50 value; entry: CC[C@H](C)[C@H](NC(=O)[C@H](CC(=O)O)NC(=O)CNC(=O)[C@H](CC(C)C)NC(=O)[C@H](CS)NC(=O)[C@H](CC(=O)O)NC(=O)CNC(=O)[C@H](Cc1ccc(O)cc1)NC(=O)[C@H](CCC(N)=O)NC(=O)[C@H](CCCCN)NC(=O)[C@@H](NC(=O)[C@H](Cc1ccccc1)NC(=O)CNC(=O)[C@H](C)N)[C@@H](C)CC)C(=O)N[C@@H](C)C(=O)O [peptide 167]
[A] 5.96

----------
tested_on: HLA-DRB1*09:01 (Homo sapiens, UniProt P01903+P01911, A100R/A103E/D57H/D86V/F55Y/F60I/F76Y/I96F/K127E/L162R/M171V/P40D/Q125H/Q99R/R33Q/R42F/S133A/S66N/T210M/V115G/W38K/Y107V/Y59G/Y89S)
assay_protocol: biochemical
measured_endpoint: IC50 (nM)
State just the number; it will be interpreted in nM.

Known IC50 results, listed for orientation:
[Q] Give the reported IC50 for this compound. CC[C@H](C)[C@H](NC(=O)[C@H](CCCNC(=N)N)NC(=O)[C@H](CCCCN)NC(=O)[C@H](CCCNC(=N)N)NC(=O)[C@H](CC(N)=O)NC(=O)[C@H](Cc1c[nH]c2ccccc12)NC(=O)[C@H](C)NC(=O)[C@H](Cc1ccc(O)cc1)NC(=O)[C@@H](NC(=O)[C@H](CO)NC(=O)[C@H](C)NC(=O)[C@H](Cc1ccccc1)NC(=O)[C@@H](N)CCCNC(=N)N)C(C)C)C(=O)N[C@@H](CO)C(=O)N[C@@H](CC(N)=O)C(=O)O
[A] 1380

[Q] Look up IC50 of CC(C)[C@H](N)C(=O)N[C@@H](Cc1ccccc1)C(=O)N[C@@H](CC(N)=O)C(=O)N[C@@H](C)C(=O)N[C@H](C(=O)N[C@@H](CCCNC(=N)N)C(=O)N[C@@H](Cc1ccccc1)C(=O)N[C@@H](C)C(=O)N[C@@H](CO)C(=O)N[C@H](C(=O)N[C@@H](Cc1ccc(O)cc1)C(=O)N[C@@H](C)C(=O)N[C@@H](Cc1c[nH]c2ccccc12)C(=O)N[C@@H](CC(N)=O)C(=O)N[C@@H](CCCNC(=N)N)C(=O)O)C(C)C)[C@@H](C)O [peptide 69] and report it.
[A] 321

New cases:
[Q] Find the measured IC50 of CC[C@H](C)[C@H](NC(=O)CN)C(=O)N[C@@H](Cc1ccc(O)cc1)C(=O)N[C@@H](CCC(N)=O)C(=O)N[C@H](C(=O)N[C@@H](CO)C(=O)N[C@@H](CC(N)=O)C(=O)N[C@@H](Cc1ccccc1)C(=O)N[C@@H](CCCNC(=N)N)C(=O)N[C@H](C(=O)N[C@@H](CCC(N)=O)C(=O)N1CCC[C@H]1C(=O)N[C@H](C(=O)N[C@@H](CCC(=O)O)C(=O)N[C@@H](CO)C(=O)O)[C@@H](C)O)C(C)C)[C@@H](C)O and report it.
[A] 305
